- test system: UniProt:Q92633
- Sequence (Q92633 whole entry): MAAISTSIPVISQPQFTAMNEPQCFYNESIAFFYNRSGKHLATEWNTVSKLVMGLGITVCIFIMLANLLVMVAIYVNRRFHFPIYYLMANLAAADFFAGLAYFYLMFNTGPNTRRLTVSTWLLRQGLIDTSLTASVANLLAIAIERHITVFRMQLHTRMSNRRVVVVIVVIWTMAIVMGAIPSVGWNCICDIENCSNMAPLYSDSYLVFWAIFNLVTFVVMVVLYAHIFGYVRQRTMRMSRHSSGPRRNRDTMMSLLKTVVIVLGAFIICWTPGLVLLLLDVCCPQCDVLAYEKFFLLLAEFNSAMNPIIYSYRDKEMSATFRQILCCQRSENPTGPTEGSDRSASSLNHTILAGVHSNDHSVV
- method notes: LPA1 functional antagonist assay (LPA-induced calcium flux in CHO cells overexpressing human LPA1)
- conditions: antagonist mode, inhibition of calcium flux induced by 10 nM LPA, read-out: hLPA1 IC50
assay readout: IC50 (nM)
Respond numerically; units are nM and should not be typed.

I would be grateful if you could share the reported IC50 for CC(OC(=O)Nc1c(-c2ccc(C34CCC(CC(=O)O)(CC3)OC4)c(F)c2)cnn1C)c1ccc(Cl)cc1 (racemic) .
1140

For `Cc1noc(-c2ccc(C34CCC(CC(=O)O)(CC3)OC4)cc2F)c1NC(=O)O[C@H](C)c1ccccc1Cl` then?
64

For `C[C@@H](OC(=O)Nc1c(-c2ccc(C34CCC(CC(=O)O)(CC3)OC4)cc2F)cnn1C)c1ccccc1Cl` then?
115

For Cc1noc(-c2ccc(C34CCC(CC(=O)O)(CC3)OC4)cc2)c1NC(=O)OC(C)c1cccc(Cl)c1 (racemic) then?
379

For `CC(C)CCN(C)C(=O)OCc1c(-c2ccc(C34CCC(CC(=O)O)(CC3)OC4)cc2)cnn1C` then?
520

For `CN(CCc1ccc(Cl)cc1)C(=O)OCc1c(-c2ccc(C34CCC(CC(=O)O)(CC3)OC4)cc2)cnn1C` then?
2790

For `Cc1noc(-c2ccc(C34CCC(CC(=O)O)(CC3)CO4)c(F)c2)c1NC(=O)O[C@H](C)c1ccccc1` then?
57

For `CN(C(=O)OCc1c(-c2ccc(C34CCC(CC(=O)O)(CC3)OC4)cc2F)cnn1C)C1CCCC1` then?
1860

For CC(C1CCC1)N(C)C(=O)OCc1c(-c2ccc(C34CCC(CCC(=O)O)(CC3)OC4)cc2)nnn1C (racemic) then?
440

For `Cc1noc(-c2ccc(C34CCC(CC(=O)O)(CC3)OC4)cc2)c1COC(=O)N(C)C1CCCC1` then?
317

For CC(C1CC1)N(C)C(=O)OCc1c(-c2ccc(C34CCC(CC(=O)O)(CC3)OC4)cc2)cnn1C (racemic) then?
1890

For `CN(C(=O)OCc1c(-c2ccc(C34CCC(CC(=O)O)(CC3)OC4)cc2)cnn1C)C1CCCC1` then?
1610

For `Cc1noc(-c2ccc(C34CCC(CCC(=O)O)(CC3)CO4)cc2)c1NC(=O)O[C@H](C)c1ccccc1` then?
157

For `Cc1noc(-c2ccc(C34CCC(CC(=O)O)(CC3)CO4)cc2)c1NC(=O)O[C@H](C)c1ccccc1F` then?
134

For `Cc1ccccc1[C@@H](C)OC(=O)Nc1c(C)noc1-c1ccc(C23CCC(CC(=O)O)(CC2)OC3)cc1` then?
184

For `C[C@@H](OC(=O)Nc1c(-c2ccc(C34CCC(CC(=O)O)(CC3)OC4)c(F)c2)cnn1C)c1ccccc1Cl` then?
112

For `Cc1noc(-c2cccc(C34CCC(CC(=O)O)(CC3)OC4)c2)c1NC(=O)O[C@H](C)c1ccccc1Cl` then?
95

For `Cc1noc(-c2ccc(C34CCC(CC(=O)O)(CC3)OC4)c(F)c2)c1NC(=O)O[C@H](C)c1ccccc1` then?
41
